// data source = PubChem BioAssay

Answer each item with its documented Her2 level.
Target: Receptor tyrosine-protein kinase erbB-2 (Homo sapiens)
Assay: reducers of endogenous Her2 protein level, primary screen, SKBR3 breast tumor cells, AlphaScreen, ATP viability (AID 461);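 further: lower value means less Her2 protein in the cells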
Conditions: 18-24 h, at 10 µM, stronger effect = lower value
Form entry: value (%) — number only.

Reported Her2 level of COc1ccc(C2C(=O)N(C3CCCCC3)CC(=O)N2Cc2ccco2)cc1 (stereo unspecified) : 91.5

Reported Her2 level of CCn1ncc(C2=NOC(C(=O)NCc3ccccc3)C2)c1C (stereo unspecified) : 82.5

Reported Her2 level of "O=S(c1ccsc1)c1ccsc1" : 87

Reported Her2 level of "COc1ccc(OC)c(NC(=O)CS(=O)(=O)Cc2nc(-c3ccccc3C)oc2C)c1" : 97.5

Reported Her2 level of CC1CC(C)CN(CCCNC(=O)COc2cc(=O)n(C)c3ccccc23)C1 (stereo unspecified) : 88

Reported Her2 level of "CCc1nnc(NC(=O)CN2CCN(c3ccccc3OC)CC2)s1" : 89

---

Answer each item with its documented viability.
Assay: SK-BR-3 cell growth inhibitors, pilot screen, 24 h, human (AID 572);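 further: compound exposure lasted between 18 and 24 h rather than exactly 24 h; 100% = carrier-treated control wells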
Conditions: SK-BR-3 viability, CellTiter-Glo luminescence, at 10 µM, stronger effect = lower value
Form entry: value (%) — number only.

Reported viability of "COc1ccc(-c2nnc(SCC#N)o2)cc1" : 104

Reported viability of "COc1ccc(-c2ccc(-c3nnc(-c4ccncc4)o3)cc2)cc1" : 130

Reported viability of "CCOC(=O)N1CCN(C(=O)CN(c2ccc(C)cc2)S(=O)(=O)c2c(C)noc2C)CC1" : 81.5

Reported viability of Cc1c(Cl)cnc(NC(=O)COC(=O)C(NC(=O)c2ccco2)C(C)C)c1Cl (centres undefined) : 86

Reported viability of "COc1ccc(-c2noc(COc3ccc4ccccc4c3Br)n2)cc1OC" : 129

Reported viability of "COc1ccc2nc(CC(C)(C)CC(=O)O)c[n+]([O-])c2c1" : 109

Reported viability of "CC(C)(C)C(=O)/C=C(\N)c1ccccn1" : 102

Reported viability of "CCCn1c2ccccc2c2nnc(SCC(=O)OCC)nc21" : 95

Reported viability of CCCOc1ccc(C2c3c(oc4ccccc4c3=O)C(=O)N2CCCN2CCOCC2)cc1 (centres undefined) : 84.5

---

Experiment: HUVEC growth inhibition – cell-based, human, primary screen (AID 575);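 further: 100% = median of untreated cell wells with 0.1% DMSO on each plate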
Settings: HUVEC proliferation, CellTiter-Glo luminescence, 72 h; at 10 µM; stronger effect = lower value
Please note: viability exactly at 90% is 0 (no). Only values below 90% get 1 (yes).

IN: Is the reported viability for "Cc1cc(C(=O)NCCCN2CCN(C3CCCCC3)CC2)n(-c2ccccc2)n1" strictly below 90%?
OUT: 0 (no)

IN: Is the reported viability for CCOC(=O)C1C(=O)N(C(=O)c2ccc(OC)cc2)CC1c1ccccc1 (stereo not given) strictly below 90%?
OUT: 1 (yes)

IN: Is the reported viability for O=C(COC(=O)c1ccccc1Oc1ccccc1)NC1CCS(=O)(=O)C1 (stereo not given) strictly below 90%?
OUT: 0 (no)

IN: Is the reported viability for O=C(NC1CCCC1)C1CC1c1ccccc1 (stereo not given) strictly below 90%?
OUT: 0 (no)

---

Assay: reversal of MRP1-mediated doxorubicin resistance, pilot screen, H69AR cells, doxorubicin co-treatment (AID 601)
Conditions: H69AR cells + 2 uM doxorubicin, CellTiter-Glo, 72 h; measured here: viability with 2 uM doxorubicin; at 10 µM; stronger effect = lower value
metric: viability (%)
Form entry: value (%) — number only.

Reported viability of O=C1NC(c2ccccc2)(C(F)(F)F)SC2=CCCCCN12 (stereo not given) : 92

Reported viability of Cc1noc(C)c1S(=O)(=O)N1CCCC(C(=O)NCCc2ccc(Cl)cc2)C1 (stereo not given) : 91.7

Reported viability of "O=C(c1ccc(-c2ccccc2)cc1)N1CCN(c2ncccn2)CC1" : 90.5

Reported viability of "CC(=O)c1cn(CC(=O)NCc2ccc3c(c2)OCO3)c2ccccc12" : 92.2

Reported viability of "CCNC(=O)c1ccc(NS(=O)(=O)c2ccccc2)cc1" : 92.2

Reported viability of CCOc1ccc(C2C(C#N)=C(N)Oc3cc(C)n(CCN(C)C)c(=O)c32)cc1OCC (stereo not given) : 83.3

Reported viability of "COC(=O)c1cc(O)c(OCc2ccccc2)c(O)c1" : 76.3

Reported viability of CN1C(=O)CC(N2CCC(C(N)=O)(N3CCCCC3)CC2)C1=O (stereo not given) : 91.6

Reported viability of "O=C(NCCc1ccccn1)c1ccc(COc2ccccc2)o1" : 95.3

Reported viability of "O=C(CSc1nnc(Cn2cnc3ccccc32)o1)c1ccccc1" : 83.2

Reported viability of "O=C1N(CCCCN2C(=O)C3(OCCO3)c3ccccc32)c2ccccc2C12OCCO2" : 73.7

Reported viability of "CC1CCN(C(=O)C2CCN(S(=O)(=O)c3cnc[nH]3)CC2)CC1" : 95.3

Reported viability of "CCCCNC(=O)c1c(C)cc(=O)oc1C" : 92

Reported viability of "Cc1cc(NC(=O)CCC(=O)N(CC(=O)NC2CCCC2)Cc2ccc(F)cc2)no1" : 82.7

Reported viability of CC(NC(=O)c1ccco1)C(c1cccs1)N1CCN(c2ccc(F)cc2)CC1 (stereo not given) : 102

Reported viability of "CCOC(=O)/C=C1\SCC(=O)N1Cc1ccc(Br)cc1" : 93.3

Reported viability of "COC(=O)c1ccccc1NC(=O)CSc1nnc(-c2ccncc2)o1" : 92.4

Reported viability of "CN(Cc1ccccc1)C(=O)c1ccc2c(c1)OCO2" : 90.3

Reported viability of "CN(c1ccccc1C(N)=O)S(=O)(=O)c1ccccc1" : 85.7

Reported viability of "CC1(C)Cc2nc3oc4c(N(CCO)Cc5ccccc5)ncnc4c3cc2CO1" : 82.1

Reported viability of "COc1ccccc1Nc1ccc(C(=O)NC2CCCCC2)cn1" : 81.2

Reported viability of O=C(CN1C(=O)C2C3C=CC(C3)C2C1=O)NCc1ccc2c(c1)OCO2 (stereo not given) : 90.1

Reported viability of "O=c1c2ccccc2nnn1CSc1nc2cc(Cl)ccc2c(=O)n1Cc1ccco1" : 81.7

Reported viability of "Cc1n[nH]c(C)c1S(=O)(=O)N1CCN(c2ccccn2)CC1" : 99.8

Reported viability of "CCOc1ccc(NC(=O)c2ccccc2O)cc1" : 90.5

Reported viability of "NC(=O)c1c(NC(=O)CSc2nnc(-c3ccco3)n2-c2ccccc2)sc2c1CCC2" : 66.8

Reported viability of "CCn1cc(S(=O)(=O)CC(=O)Nc2ccc(OC)cc2)c2ccccc21" : 70.4

Reported viability of "O=C(COc1ccc(F)cc1Br)N1CCc2ccccc21" : 81.3

Reported viability of "c1ccn2c(SCc3cn4ccsc4n3)nnc2c1" : 95.7

Reported viability of "CC(=O)c1ccc(NC(=O)c2noc3c2CCCCC3)cc1" : 80.6
